assay: Half-life in Sprague-Dawley rat at 1 mg/kg, iv; type: ADME, organism-based; set-up: dose 1 mg/kg, route intravenous; details: Sprague-Dawley, in vivo
Bridge positions count the residues as written; N and C are the ends. Square brackets hold non-standard residues; d marks the D form. Peptide text beside a SMILES is read from it. Dab = NCC[C@H](N)C(=O)O
quantity_name: half-life

molecule	result
CC(=O)N[C@H](C(=O)N[C@H](CO)C(=O)N[C@H]1CCNC(=O)[C@H]([C@@H](C)O)NC(=O)[C@H](CCN)NC(=O)[C@H](CCN)NC(=O)[C@H](CC(C)C)NC(=O)[C@@H](Cc2ccccc2)NC(=O)[C@H](CCN)NC1=O)[C@@H](C)O [SPR-741] (Ac-T[dS][Dab][Dab][dF]L[Dab][Dab]T; lactam 3-C)	32.7 min
